test system: FGR; conditions: concentration: 1 μM, replicates: in singlicate; n = 1;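 note: KINOMEscan kinase panel screen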
Listing of recorded %Inh by entry.

Below, each entry is followed by its recorded %Inh result.
# Structure smiles, Assay target, %Inh
rows = [
    ("COC(=O)Nc1nc2cc(Oc3ccc(NC(=O)Nc4cccc(SC)c4)cc3)ccc2[nH]1.Cl", "FGR", "47%"),
    ("COc1cccc(NC(=O)NCCNc2ccnc(Nc3ccc(F)cc3)n2)c1", "FGR", "22%"),
    ("Cc1cccc(Nc2nc(N[C@H]3CCCC[C@H]3N)ncc2C(N)=O)c1.Cl", "FGR", "56%"),
    ("N#Cc1cnc2cc(-c3cnc(CNCCN4CCOCC4)s3)ccc2c1Nc1ccc(Oc2ccccc2)cc1", "FGR", "96.7%"),
    ("CN(C)CCOc1ccc(-c2cc(-c3ccc(Cl)c(O)c3)c(-c3ccncc3)[nH]2)cc1.Cl.Cl", "FGR", "73%"),
    ("COC(=O)Nc1nc2ccc(Oc3ccc(CC(=O)Nc4cc(C(F)(F)F)ccc4F)cc3)cc2[nH]1", "FGR", "10%"),
    ("COc1ccc(C2=C(Nc3cccc(O)c3)C(=O)NC2=O)cc1", "FGR", "0%"),
]

Note %Inh for the compound shown: COc1ccc(C)c(Nc2ccnc(Nc3ccc(-c4cnc[nH]4)cc3)n2)c1.Cl
86%

----------
test system: RAF1; conditions: concentration: 1 μM, replicates: in singlicate; n = 1
Listing of recorded %Inh by entry.
Record the value in %, omitting the unit from your answer.

# Molecule, %Inh (%)
records = [
    ("Cc1ccc(NC(=O)c2cccc(N3CCCCC3)c2)cc1-c1ccc(C(=O)NCC2CC2)cc1", 88),
    ("CC(=O)Nc1cn2nc(Oc3cccc(NC(=O)c4cccc(C(F)(F)F)c4)c3)ccc2n1", 99.8),
    ("COc1ccc(C2=C(Nc3cccc(O)c3)C(=O)NC2=O)cc1", 96.2),
    ("COc1cc(Nc2nccc(N3CCC(NS(=O)(=O)c4ccc(NC(C)=O)cc4)CC3)n2)cc(OC)c1OC", 60),
    ("COc1cccc(NC(=O)NCCNc2ccnc(Nc3ccc(F)cc3)n2)c1", 15),
    ("CN(c1ccc(NC(=O)Nc2cccc(Cl)c2)cc1)c1ccnc(N)n1.Cl", 17),
    ("O=C(O)C(F)(F)F.O=c1[nH]ccc2nc(N[C@@H]3CCNC3)nc(Nc3cc(Cl)cc(Cl)c3)c12", 0),
    ("Cc1cccc(Nc2nc(N[C@H]3CCCC[C@H]3N)ncc2C(N)=O)c1.Cl", 3),
]

Note %Inh for the molecule shown: Cl.N#CCc1ccc(Nc2nccc(Nc3ccc(Oc4ccccc4)cc3)n2)cc1
6

Note %Inh for the molecule shown: Cl.Cl.NCC(NC(=O)c1cc(-c2cccnc2)c(-c2ccnc3[nH]ccc23)s1)c1ccccc1 (centres unmarked)
12

Note %Inh for the molecule shown: CN(C)CCOc1ccc(-c2cc(-c3ccc(Cl)c(O)c3)c(-c3ccncc3)[nH]2)cc1.Cl.Cl
88

Note %Inh for the molecule shown: CN(c1ccc(F)c(NC(=O)c2cccc(OC(C)(C)C#N)c2Cl)c1)c1ccc2nc(NC(=O)C3CC3)sc2n1
96.1

Note %Inh for the molecule shown: O=C(Nc1n[nH]c2nc(-c3cccc(O)c3)ccc12)C1CC1
6

Note %Inh for the molecule shown: COc1ccc(C)c(Nc2ccnc(Nc3ccc(-c4cnc[nH]4)cc3)n2)c1.Cl
27

Note %Inh for the molecule shown: Cn1cc(-c2ccc3c(c2)CCN3C(=O)Cc2cc(F)cc(C(F)(F)F)c2)c2c(N)ncnc21
11

Note %Inh for the molecule shown: Cc1cc(-c2c(-c3ccc(F)cc3)ncn2CCCN2CCOCC2)nc(N)n1
0

Note %Inh for the molecule shown: COc1cc(Nc2ccnc3cc(-c4ccncc4)ccc23)cc(OC)c1OC.Cl
23

----------
Listing of recorded %Inh by entry.
system: RIOK2; conditions: concentration: 1 μM, replicates: in singlicate; n = 1
Record the value in %, omitting the unit from your answer.

Report measured %Inh on RIOK2; entry: CC(C)c1nc(-c2ccc(F)c(NS(=O)(=O)c3c(F)cccc3F)c2)c(-c2ccnc(Nc3ccc(N4CCOCC4)nc3)n2)s1
13

----------
test system: EPHB4; conditions: concentration: 1 μM, replicates: in singlicate; n = 1
Reported metric: %Inh

Below, each entry is followed by its recorded %Inh result.
# Compound, %Inh
records = [
    ("Nc1cccc(-c2ccc3c(N)n[nH]c3c2)c1", "14%"),
    ("NCCC(NC(=O)c1cc(Br)c(-c2ccnc3[nH]ccc23)s1)c1ccccc1.O=C(O)C(F)(F)F.O=C(O)C(F)(F)F (centres unmarked)", "0%"),
    ("COc1cccc2c(-c3ccncc3)c(-c3ccc(F)cc3)nn12", "13%"),
    ("COC(=O)Nc1nc2ccc(Oc3ccc(CC(=O)Nc4cc(C(F)(F)F)ccc4F)cc3)cc2[nH]1", "20%"),
    ("COC(=O)Nc1nc2ccc(Oc3ccc(NC(=O)Nc4cc(C(F)(F)F)ccc4F)cc3)cc2[nH]1.Cl", "58%"),
    ("COc1cccc(NC(=O)NCCNc2ccnc(Nc3ccc(F)cc3)n2)c1", "19%"),
    ("CN(c1ccc(NC(=O)Nc2cccc(Cl)c2)cc1)c1ccnc(N)n1.Cl", "61%"),
]

Okay, now this compound:
Note %Inh for the compound shown: Cl.N#CCc1ccc(Nc2nccc(Nc3ccc(Oc4ccccc4)cc3)n2)cc1
0%

----------
Listing of recorded %Inh by entry.
system: FGFR2; conditions: concentration: 1 μM, replicates: in singlicate; n = 1
Record the value in %, omitting the unit from your answer.

Below, each entry is followed by its recorded %Inh result.
# Compound, Measured result
rows = [
    ("Cc1ccc(O)cc1Nc1ccnc2ccc(C(C)(C)C)cc12", 28),
    ("Cc1ccc(C)c(NC(=O)Nc2ccc(C)c(-c3ccc(C(=O)Nc4ccncc4)cc3)c2)c1", 0),
    ("CCn1c(-c2nonc2N)nc2c(-c3ccccc3)ncc(OCCCN)c21.O=C(O)C(F)(F)F.O=C(O)C(F)(F)F", 0),
    ("Cc1ccc(-c2ccc3occ(-c4ccc(S(C)=O)cc4)c3c2)nn1 (stereo not drawn)", 2),
    ("Nc1ncc(-c2cn[nH]c2)c2scc(-c3ccc4c(c3)CCN4C(=O)Cc3ccccc3)c12", 31),
]

Note %Inh for the compound shown: Cn1cc(-c2ccc3c(c2)CCN3C(=O)Cc2cc(F)cc(F)c2F)c2c(N)ncnc21
0

Note %Inh for the compound shown: CC(C)c1nc(-c2ccc(F)c(NS(=O)(=O)c3c(F)cccc3F)c2)c(-c2ccnc(Nc3ccc(N4CCOCC4)nc3)n2)s1
11

Note %Inh for the compound shown: Cc1nn2c(=O)cc(N3CCO[C@H](C)C3)nc2n1Cc1cccc(Cl)c1Cl
12

Note %Inh for the compound shown: CSc1ccc(NC2=C(c3ccc(Cl)cc3)C(=O)NC2=O)cc1
9

Note %Inh for the compound shown: COc1cccc(-c2nc(-c3ccccc3)[nH]c2-c2ccncc2)c1
0

Note %Inh for the compound shown: CN(C)CCOc1ccc(-c2cc(-c3ccc(Cl)c(O)c3)c(-c3ccncc3)[nH]2)cc1.Cl.Cl
1

Note %Inh for the compound shown: Cc1ccc(Nc2ccnc(Nc3ccc(C)c(F)c3)n2)cc1O.Cl
0

----------
Listing of recorded %Inh by entry.
tested on: TNNI3K; details: concentration: 1 μM, replicates: in singlicate; n = 1
Record the value in %, omitting the unit from your answer.

Below, each entry is followed by its recorded %Inh result.
# Compound, Reported metric, Measured result
measured = [
    ("Cl.O=C(Nc1ccc(Oc2ccc3[nH]c(NC(=O)c4ccco4)nc3c2)cc1)Nc1cc(C(F)(F)F)ccc1F [GW683134]", "%Inh", 87),
    ("Cc1ccc(O)cc1Nc1ccnc2ccc(C(C)(C)C)cc12 [GW856805]", "%Inh", 6),
    ("COc1cc(Nc2ccnc3cc(-c4ccncc4)ccc23)cc(OC)c1OC.Cl [GW494610]", "%Inh", 14),
    ("COc1ccc(C2=C(Nc3cccc(O)c3)C(=O)NC2=O)cc1 [SB-390766]", "%Inh", 27),
    ("CC(C)c1nc(-c2ccc(F)c(NS(=O)(=O)c3c(F)cccc3F)c2)c(-c2ccnc(Nc3ccc(N4CCOCC4)nc3)n2)s1 [GSK1804250]", "%Inh", 18),
]

Note %Inh for the compound shown: CN(c1ccc(NC(=O)N2CCN(CCCN3CCOCC3)CC2)cc1)c1ccnc(Nc2ccc(CS(C)(=O)=O)cc2)n1.Cl [GW830899]
5

Note %Inh for the compound shown: COc1cccc2c(-c3ccncc3)c(-c3ccc(F)cc3)nn12 [GW468513]
6

Note %Inh for the compound shown: O=C(Nc1n[nH]c2nc(-c3cccc(O)c3)ccc12)C1CC1 [SB-711805]
0
